The reported numbers originate from patent US20260242478A1.

system_name: T1, PSMA Fab (biotinylated (site not stated))
T1 construct: also called Anti-PSMA Fab; 006 PSMA Fab
protocol_text: phage ELISA; PSMA Fab on plate pre-incubated with PSMA antigen as competitor, anti-M13 HRP detection;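 further: crude clonal phage supernatants added to Fab-coated wells still holding PSMA antigen in blocking buffer, with bound phage as read-out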
Assign true to entries whose phage binding ELISA signal (Anti-PSMA Fab, PSMA antigen present) meets or exceeds 0.09; assign false to the rest.

Given the entry LQSMCRPAWMCTGF [Phage-2994] , answer whether its phage binding ELISA signal (Anti-PSMA Fab, PSMA antigen present) meets or surpasses 0.09.
false

# repeat for YQLLCKPEWMCVGF [Phage-3002]
false

# repeat for IARMCVPEWMCQEL [Phage-2999]
true

# repeat for MLPWCVPHWMCDGF [Phage-3003]
true

# repeat for FHVRCVPEWMCWGF [Phage-2991]
true
